All values here come from patent US11427549B2.

I'd be grateful if you could share measured pest or weed control at 31 g/ha for these entries.
tested on: ragweed (common ragweed, Ambrosia elatior); assay: Test A postemergence, ragweed; format: in vivo; conditions: Ambrosia artemisiifolia, post-emergence, 240 h, 31 g ai/ha, 0 to 100 scale (0 no effect, 100 complete control), read-out: Plant response rating, Ragweed
Give bare numbers, in %.

Study these solved cases before continuing.
>>> reading("CCCC1OC(=O)Cc2cccc(Oc3ncc(Cl)cn3)c21 (stereo not shown)")
0
>>> reading("O=C1OCc2cccc(Oc3ncc(Cl)cn3)c2C1CCCC(F)(F)F (stereo not shown)")
0
>>> reading("FC(F)(F)CCCC1CCc2cccc(Oc3ncc(Cl)cn3)c21 (stereo not shown)")
0

Take each entry in turn and give its pest or weed control at 31 g/ha.
1. O=C1c2cccc(Oc3ncc(Cl)cn3)c2C1CCCC(F)(F)F (stereo not shown)
2. FC(F)(F)CCCC1OCc2cccc(Oc3ncc(Cl)cn3)c21 (stereo not shown)
3. O=C1O[C@@H](CCCC(F)(F)F)c2c(Oc3ncc(Cl)cn3)cccc21
4. O=C1Cc2cccc(Oc3ncc(Cl)cn3)c2C(CCC(F)(F)F)O1 (stereo not shown)
5. O=C1OCC(CCC(F)(F)F)c2c(Oc3ncc(Cl)cn3)cccc21 (stereo not shown)
6. O=C1OC(CCC(F)(F)F)Cc2c(Oc3ncc(Cl)cn3)cccc21 (stereo not shown)

A.
1: 0; 2: 0; 3: 0; 4: 10; 5: 0; 6: 0

Take each entry in turn and give its pest or weed control at 31 g/ha.
1. O=C1Cc2cccc(Oc3ncc(Cl)cn3)c2C(CCCC(F)(F)F)O1 (stereo not shown)
2. O=C1NC(CCCC(F)(F)F)c2c(Oc3ncc(Cl)cn3)cccc21 (stereo not shown)
3. O=C1O[C@H](CCCC(F)(F)F)c2c(Oc3ncc(Cl)cn3)cccc21
4. CN1C(=O)c2cccc(Oc3ncc(Cl)cn3)c2C1CCCC(F)(F)F (stereo not shown)

A.
[10, 0, 10, 0]

Take each entry in turn and give its pest or weed control at 31 g/ha.
1. FC(F)(F)CC[C@H]1OCc2cccc(Oc3ncc(Cl)cn3)c21
2. O=C1CCC(CCCC(F)(F)F)c2c(Oc3ncc(Cl)cn3)cccc21 (stereo not shown)
3. FC(F)(F)CCC1COc2cccc(Oc3ncc(Cl)cn3)c21 (stereo not shown)
4. O=C1OC(CCC(F)(F)F)c2c(Oc3ncc(Cl)cn3)cccc21 (stereo not shown)
5. O=C1c2cccc(Oc3ncc(Cl)cn3)c2C1CCC(F)(F)F (stereo not shown)

A.
1: 30; 2: 10; 3: 0; 4: 0; 5: 0

----------
I'd be grateful if you could share measured pest or weed control at 125 g/ha for these entries.
system: kochia (Kochia scoparia); experiment: Test A preemergence, kochia; assay type: in vivo; settings: Bassia scoparia, pre-emergence, 240 h, 125 g ai/ha, 0 to 100 scale (0 no effect, 100 complete control), read-out: Plant response rating, Kochia

Study these solved cases before continuing.
>>> reading("FC(F)(F)CC[C@H]1OCc2cccc(Oc3ncc(Cl)cn3)c21")
"100%"
>>> reading("O=C1c2cccc(Oc3ncc(Cl)cn3)c2C1CCC(F)(F)F (centres unmarked)")
"60%"
>>> reading("O=C1COC(CCCC(F)(F)F)c2c(Oc3ncc(Cl)cn3)cccc21 (centres unmarked)")
"0%"
>>> reading("FC(F)(F)CCCC1OCc2cccc(Oc3ncc(Cl)cn3)c21 (centres unmarked)")
"100%"

Okay, now this compound:
For this compound ( `O=C1O[C@@H](CCC(F)(F)F)c2c(Oc3ncc(Cl)cn3)cccc21` ), measured pest or weed control at 125 g/ha is 0%
